Experiment: qHTS assay to identify small molecule antagonists of the androgen receptor (AR) signaling pathway using the MDA cell line in the presence of 0.5 nM R1881 - cell viability counter screen (AID 1259242); also: nearly all actives have a fitted effect of over 45% in size
Conditions: MDA-kb2 viability, CellTiter-Fluor protease fluorescence, 16 h; series mostly up to 92.4 µM
Results filed as inconclusive are left out. The source made the active and inactive calls. Calls follow the shape of the dose curve; as a rule, active = well fitted cell-killing curve with a large enough effect in the repeat runs; inconclusive = weak or mixed curves, or effect the other way; inactive = flat fitted curve, though single readings scatter.
Choose the fitting class; nothing outside 1 (yes) (active), 0 (no) (inactive) is accepted.

Any idea what this test logged for "Cn1[nH]nnc1=S" ?
0 (no)

Any idea what this test logged for "NC(=O)CCl" ?
0 (no)

Any idea what this test logged for "COC[C@H](C)N(C(=O)CCl)c1c(C)csc1C" ?
0 (no)

Any idea what this test logged for "CCN(CC)C(=S)[S-].CCN(CC)C(=S)[S-].[Zn+2]" ?
0 (no)

Any idea what this test logged for Clc1ccc(CCC(Cn2ccnc2)Sc2c(Cl)cccc2Cl)cc1 (stereo not drawn) ?
0 (no)

Any idea what this test logged for CC1(C)CC/C(=C/c2ccc(Cl)cc2)C1(O)Cn1cncn1 (stereo not drawn) ?
0 (no)

Any idea what this test logged for "C[C@]12Cc3nonc3C[C@@H]1CC[C@@H]1[C@@H]2CC[C@@]2(C)[C@H]1CC[C@]2(C)O" ?
0 (no)

Any idea what this test logged for "[CH3][Hg][Cl]" ?
1 (yes)

Any idea what this test logged for "c1ccc2cc3c(cc2c1)-c1cccc2cccc-3c12" ?
0 (no)

Any idea what this test logged for "COc1ccc(OC)c(C=O)c1" ?
0 (no)

Any idea what this test logged for "Cc1cc(Cl)ccc1O[C@H](C)C(=O)O" ?
0 (no)

Any idea what this test logged for CCC(C)c1cc(C(C)(C)C)cc(-n2nc3ccccc3n2)c1O (stereo not drawn) ?
0 (no)

Any idea what this test logged for c1ccc2c(c1)OCC(C1=NCCN1)O2 (stereo not drawn) ?
0 (no)

###

Target: Nuclear receptor subfamily 1 group I member 3 (Homo sapiens)
Experiment: qHTS assay to identify small molecule antagonists of the constitutive androstane receptor (CAR) signaling pathway (AID 1224838);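 also: HepG2 cells stably expressing hCAR with CYP2B6 luciferase reporter stimulated by CITCO; nearly all actives have a fitted effect of over 40% in size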
Details: HepG2-CYP2B6-hCAR luciferase, CITCO-stimulated, 24 h; series mostly up to 92.4 µM
Results filed as inconclusive are left out. Calls of active or inactive are those of the source. Calls come from the whole dose curve; as a rule, active = well fitted inhibition curve with a large enough effect in the repeat runs; inconclusive = weak or mixed curves, or effect the other way; inactive = no such curve, though single readings can be large or run the other way.
Choose the fitting class; nothing outside true = active, false = inactive is accepted.

Any idea what this test logged for "CCCCCCCCCC[N+](C)(C)CCCCCCCCCC" ?
true

Any idea what this test logged for "Nc1ccc([N+](=O)[O-])cc1Cl" ?
false

Any idea what this test logged for "O=[N+]([O-])c1ccc2ccc3cccc4ccc1c2c34" ?
true

Any idea what this test logged for O=C1NCN(c2ccccc2)C12CCN(CC1COc3ccccc3O1)CC2 (stereo not drawn) ?
false

Any idea what this test logged for "O=[N+]([O-])c1cc([N+](=O)[O-])c2ccccc2c1" ?
false

Any idea what this test logged for "CCOCn1c(-c2ccc(Cl)cc2)c(C#N)c(Br)c1C(F)(F)F" ?
true

Any idea what this test logged for "C[C@]12CC[C@H](O)C[C@H]1CC[C@@H]1[C@@H]2C[C@@H](O)[C@]2(C)[C@@H](C3=CC(=O)OC3)CC[C@]12O" ?
true

Any idea what this test logged for "CCCCOP(=O)(CCCC)OCCCC" ?
false

Any idea what this test logged for "CC[C@H](C)[C@H]1O[C@]2(C=C[C@@H]1C)C[C@@H]1C[C@@H](C/C=C(\C)[C@@H](O[C@H]3C[C@H](OC)[C@@H](O[C@H]4C[C@H](OC)[C@@H](O)[C@H](C)O4)[C@H](C)O3)[C@@H](C)/C=C/C=C3\CO[C@@H]4[C@H](O)C(C)=C[C@@H](C(=O)O1)[C@]34O)O2" ?
true

Any idea what this test logged for "O=[N+]([O-])c1c2ccccc2cc2ccccc12" ?
false

Any idea what this test logged for "CCOP(=S)(OCC)SCS(=O)(=O)CC" ?
false

Any idea what this test logged for "O=[N+]([O-])c1cc(Cl)ccc1Cl" ?
false

Any idea what this test logged for "CCCCCCCCCBr" ?
false

Any idea what this test logged for "O=S(=O)(c1ccc(Cl)cc1)c1ccc(Cl)cc1" ?
false

Any idea what this test logged for "O=C/C(Cl)=C(/Cl)C(=O)O" ?
false

Any idea what this test logged for "CCN" ?
false

Any idea what this test logged for CC(C)(COCC1CO1)COCC1CO1 (stereo not drawn) ?
false

Any idea what this test logged for CC1(c2ccc(Oc3ccccc3)cc2)OC(=O)N(Nc2ccccc2)C1=O (stereo not drawn) ?
false

Any idea what this test logged for "N#Cc1c(-c2ccc(Cl)cc2)[nH]c(C(F)(F)F)c1Br" ?
true

Any idea what this test logged for CC(C)(C)C(O)C(Oc1ccc(-c2ccccc2)cc1)n1cncn1 (stereo not drawn) ?
false

Any idea what this test logged for "CN(C)CCc1c[nH]c2ccc(O)cc12" ?
false

Any idea what this test logged for "CC(C)(C)c1ccc(CSc2cnn(C(C)(C)C)c(=O)c2Cl)cc1" ?
false

Any idea what this test logged for "Nc1ccc(Sc2ccc(N)cc2)cc1" ?
false

###

Assay: qHTS assay to identify small molecule antagonists of the sonic hedgehog signaling (Shh) pathway - cell viability counter screen (AID 1259367); also: nearly all actives have a fitted effect of over 55% in size
Conditions: NIH/3T3 Gli1-Luc viability, CellTiter-Fluor, 24 h; series mostly up to 92.4 µM
Records with an inconclusive call do not appear. Calls of active or inactive are those of the source. Calls follow the shape of the dose curve; as a rule, active = well fitted cell-killing curve with a large enough effect in the repeat runs; inconclusive = weak or mixed curves, or effect the other way; inactive = no such curve, though single readings can be large or run the other way.
Choose the fitting class; nothing outside active, inactive is accepted.

Any idea what this test logged for "CC(=O)c1ccc(-c2ccccc2)cc1" ?
inactive

Any idea what this test logged for "Nc1ccc(Sc2ccc(N)cc2)cc1" ?
inactive

Any idea what this test logged for "CC(=O)C(Cl)(Cl)Cl" ?
active

Any idea what this test logged for "N#CCCSCCC#N" ?
inactive

Any idea what this test logged for "O=C(CCl)Nc1ccccc1" ?
active

Any idea what this test logged for Clc1ccc(CSC(Cn2ccnc2)c2ccc(Cl)cc2Cl)cc1 (centres undefined) ?
active

Any idea what this test logged for "Oc1ccccc1Br" ?
inactive

Any idea what this test logged for "Nc1ccc(Cc2ccc(N)c(Cl)c2)cc1Cl" ?
active

Any idea what this test logged for CCC(C)c1cc(C(C)(C)C)cc(-n2nc3ccccc3n2)c1O (centres undefined) ?
inactive

Any idea what this test logged for "CN(C)C1CSSSC1" ?
inactive

Any idea what this test logged for "Oc1ccc(C2(c3ccc(O)cc3)c3ccccc3-c3ccccc32)cc1" ?
active

Any idea what this test logged for C[C@H]1CC[C@@H]2[C@@H](C)[C@H]3[C@H](C[C@H]4[C@@H]5CC=C6CC(O[C@@H]7O[C@H](CO)[C@H](O)[C@H](O[C@@H]8O[C@H](CO)[C@@H](O)[C@H](O)[C@H]8O)[C@H]7O[C@H]7O[C@@H](C)[C@H](O)[C@@H](O)[C@H]7O)CC[C@]6(C)[C@H]5CC[C@]34C)N2C1 (some centres undefined) ?
inactive

Any idea what this test logged for "CC(=[OH+])/C=C(/C)[O-].CC(=[OH+])/C=C(\C)[O-].CC(=[OH+])/C=C(\C)[O-].[Fe]" ?
inactive

Any idea what this test logged for "COP(=O)(CCC(=O)NCO)OC" ?
inactive

Any idea what this test logged for ClC1=C(Cl)C2(Cl)C3C(Cl)C=CC3C1(Cl)C2(Cl)Cl (centres undefined) ?
inactive

Any idea what this test logged for "O=[N+]([O-])c1ccc(Oc2ccc(C(F)(F)F)cc2[N+](=O)[O-])cc1" ?
inactive

Any idea what this test logged for "COC[C@H](C)N(C(=O)CCl)c1c(C)csc1C" ?
inactive

Any idea what this test logged for "CCOC(=O)c1ccccc1S(=O)(=O)NC(=O)Nc1nc(Cl)cc(OC)n1" ?
inactive

Any idea what this test logged for "C=COCCCl" ?
inactive

Any idea what this test logged for "ClC1=C(Cl)[C@]2(Cl)[C@@H]3[C@@H](Cl)[C@@H](Cl)C[C@@H]3[C@@]1(Cl)C2(Cl)Cl" ?
inactive

Any idea what this test logged for "BrC(Br)Br" ?
inactive

Any idea what this test logged for CCCCCCCCCCCCCN1CC(C)OC(C)C1 (centres undefined) ?
inactive

Any idea what this test logged for "Clc1ccc(-c2ccc(Cl)c(Cl)c2Cl)c(Cl)c1Cl" ?
inactive

Any idea what this test logged for "Oc1c(Br)c(Br)c(Br)c(Br)c1Br" ?
inactive

###

Assay: qHTS assay to test for compound auto fluorescence at 590 nm (red) in HepG2 cell free culture (AID 720684); also: % is scaled to controls: 0 for no effect and ±100 for the full control effect
Conditions: cell-free medium autofluorescence, red 540/590 nm; series mostly up to 91.3 µM
The source made the active and inactive calls. Calls follow the shape of the dose curve; as a rule, active = well fitted curve in the direction sought with a large enough effect in the repeat runs; inconclusive = weak or mixed curves; inactive = flat fitted curve, though single readings scatter.
Assay Metric: fluorescence, % of Rose Bengal

{"Molecule": "CC1(C)[C@H](C(=O)O[C@H](C#N)c2cccc(Oc3ccccc3)c2)[C@@H]1/C=C(\\Cl)C(F)(F)F", "fluorescence, % of Rose Bengal": "inactive"}
{"Molecule": "COc1cc(N)c(Cl)cc1C(=O)NC1CN2CCC1CC2 (stereo not drawn)", "fluorescence, % of Rose Bengal": "inactive"}
{"Molecule": "BrC(Br)C(Br)(Br)Br", "fluorescence, % of Rose Bengal": "inactive"}
{"Molecule": "Nc1ccc(Sc2ccc(N)cc2)cc1", "fluorescence, % of Rose Bengal": "inactive"}
{"Molecule": "CC1CCC(C(C)C)C(OC(=O)c2ccccc2N)C1 (stereo not drawn)", "fluorescence, % of Rose Bengal": "inactive"}
{"Molecule": "CC(C)Oc1cccc(NC(=O)c2ccccc2C(F)(F)F)c1", "fluorescence, % of Rose Bengal": "inactive"}
{"Molecule": "CC(C)CC(C)N (stereo not drawn)", "fluorescence, % of Rose Bengal": "inactive"}
{"Molecule": "C1CCC2CCCCC2C1 (stereo not drawn)", "fluorescence, % of Rose Bengal": "inactive"}

fluorescence, % of Rose Bengal lookup needed for "CCN(CC)c1c([N+](=O)[O-])cc(C(F)(F)F)c(N)c1[N+](=O)[O-]" , thanks.
inactive

fluorescence, % of Rose Bengal lookup needed for "CCCCCCCCCCCCCCCC[n+]1ccccc1" , thanks.
inactive

fluorescence, % of Rose Bengal lookup needed for "CCOC(=O)C1(c2ccccc2)CCN(CCC(C#N)(c2ccccc2)c2ccccc2)CC1" , thanks.
inactive

fluorescence, % of Rose Bengal lookup needed for "O=C(CCl)Nc1ccccc1" , thanks.
inactive

fluorescence, % of Rose Bengal lookup needed for "BrC(Br)Br" , thanks.
inactive
